Target: human 5HT transporter (L-S2 cells) (Homo sapiens, UniProt P31645)
Construct: expressed in transfected cells; host or cells: mouse L-M fibroblasts (ATCC CCL 1.2) transfected with total human genomic DNA and pSV2neo; clone L-S2
Sequence (P31645 whole entry): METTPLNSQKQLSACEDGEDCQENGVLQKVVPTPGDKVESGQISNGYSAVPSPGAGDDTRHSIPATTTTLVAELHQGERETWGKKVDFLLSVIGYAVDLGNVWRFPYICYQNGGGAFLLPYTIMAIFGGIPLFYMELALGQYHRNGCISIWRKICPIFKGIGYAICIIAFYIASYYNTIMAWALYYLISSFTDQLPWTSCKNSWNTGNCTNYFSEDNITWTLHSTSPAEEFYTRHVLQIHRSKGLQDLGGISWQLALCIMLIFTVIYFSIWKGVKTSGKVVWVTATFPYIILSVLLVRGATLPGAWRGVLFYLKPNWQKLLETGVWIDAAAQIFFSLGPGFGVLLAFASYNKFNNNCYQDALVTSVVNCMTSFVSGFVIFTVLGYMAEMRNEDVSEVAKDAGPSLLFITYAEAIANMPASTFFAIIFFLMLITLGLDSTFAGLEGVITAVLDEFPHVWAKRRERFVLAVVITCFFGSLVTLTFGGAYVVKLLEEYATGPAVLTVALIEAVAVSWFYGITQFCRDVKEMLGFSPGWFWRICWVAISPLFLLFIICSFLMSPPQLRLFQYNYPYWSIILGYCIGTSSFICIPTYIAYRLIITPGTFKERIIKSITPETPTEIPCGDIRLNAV
Experiment: [3H]-5-HT uptake by L-S2 cells
Type: cell-based
Procedure: L-S1 and L-M cells were preplated into 96-well culture plates. For uptake assays, the growth medium was removed from each well and the cells rinsed several times with oxygenated Ringer's buffer supplemented with 0.5 mM pargyline and 0.5 mM ascorbate. […] Non-specific activity was determined from parallel assays carried out at 0° C. Initial velocities were calculated in terms of pmol/mg protein/min by subtracting velocity values obtained at 0° C. from those obtained at 37° C. […]
reported metric: IC50 (nM)
// note: answer is a bare numeric in nM

Field: example entries. Status: answers known.
c1ccc2c3c([nH]c2c1)CNCC3 [Tryptoline]
8000
COc1ccc2[nH]cc(CCN)c2c1 [5-methoxytryptamine]
1500

Proceed to the following item.
# input What does the data say about its IC50? Entry: NCCc1c[nH]c2ccccc12 [Tryptamine, tryptamine]
# output 900

###

test system: aspartate/glutamate co-transport system (L-Aspl cells); assay: D-[3H]aspartate uptake by L-Aspl cells; format: cell-based, human
reported metric: effect on D-[3H]Asp uptake by L-Aspl cells

N[C@@H](Cn1oc(=O)[nH]c1=O)C(=O)O [quisqualate]
without effect
CN[C@H](CC(=O)O)C(=O)O [NMDA, N-methyl-D-aspartic acid]
without effect
CCOC(=O)CC[C@H](N)C(=O)OCC [DEEG, glutamate diethylester]
without effect
N[C@@H](CCS(=O)(=O)O)C(=O)O [LHCA, L-homocysteic acid]
without effect

Taken from patent US5424185A.
